Test system: MCF7;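 also: secreted proteins added to cultured cells, EdU pulse at the end, nuclei found by Hoechst imaging, EdU status from nuclear versus surrounding ring intensity ratio, PBS as neutral control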
assay method text: percentage of EdU-negative (G0-arrested) nuclei per well, 72 h; higher = more G0 arrest
condition: protein concentration 0.225 µM; reference: sequence is the full UniProt precursor, the tested protein was the secreted form or ectodomain
Provide the recorded percentage of EdU-negative for the entries that follow.
Please reply with the bare figure in % and do not write the unit itself.

Input: percentage of EdU-negative for MQRLRWLRDWKSSGRGLTAAKEPGARSSPLQAMRILQLILLALATGLVGGETRIIKGFECKPHSQPWQAALFEKTRLLCGATLIAPRWLLTAAHCLKPRYIVHLGQHNLQKEEGCEQTRTATESFPHPGFNNSLPNKDHRNDIMLVKMASPVSITWAVRPLTLSSRCVTAGTSCLISGWGSTSSPQLRLPHTLRCANITIIEHQKCENAYPGNITDTMVCASVQEGGKDSCQGDSGGPLVCNQSLQGIISWGQDPCAITRKPGVYTKVCKYVDWIQETMKNN [Q9UBX7] ?
Output: 25.5

Input: What do we get for `MQQPFNYPYPQIYWVDSSASSPWAPPGTVLPCPTSVPRRPGQRRPPPPPPPPPLPPPPPPPPLPPLPLPPLKKRGNHSTGLCLLVMFFMVLVALVGLGLGMFQLFHLQKELAELRESTSQMHTASSLEKQIGHPSPPPEKKELRKVAHLTGKSNSRSMPLEWEDTYGIVLLSGVKYKKGGLVINETGLYFVYSKVYFRGQSCNNLPLSHKVYMRNSKYPQDLVMMEGKMMSYCTTGQMWARSSYLGAVFNLTSADHLYVNVSELSLVNFEESQTFFGLYKL` ?
Output: 29

Input: What do we get for `MAAPVPWACCAVLAAAAAVVYAQRHSPQEAPHVQYERLGSDVTLPCGTANWDAAVTWRVNGTDLAPDLLNGSQLVLHGLELGHSGLYACFHRDSWHLRHQVLLHVGLPPREPVLSCRSNTYPKGFYCSWHLPTPTYIPNTFNVTVLHGSKIMVCEKDPALKNRCHIRYMHLFSTIKYKVSISVSNALGHNATAITFDEFTIVKPDPPENVVARPVPSNPRRLEVTWQTPSTWPDPESFPLKFFLRYRPLILDQWQHVELSDGTAHTITDAYAGKEYIIQVAAKDNEIGTWSDWSVAAHATPWTEEPRHLTTEAQAAETTTSTTSSLAPPPTTKICDPGELGSGGGPSAPFLVSVPITLALAAAAATASSLLI` ?
Output: 27.1

Input: What do we get for `MAARRSQRRRGRRGEPGTALLVPLALGLGLALACLGLLLAVVSLGSRASLSAQEPAQEELVAEEDQDPSELNPQTEESQDPAPFLNRLVRPRRSAPKGRKTRARRAIAAHYEVHPRPGQDGAQAGVDGTVSGWEEARINSSSPLRYNRQIGEFIVTRAGLYYLYCQVHFDEGKAVYLKLDLLVDGVLALRCLEEFSATAASSLGPQLRLCQVSGLLALRPGSSLRIRTLPWAHLKAAPFLTYFGLFQVH` ?
Output: 24.3

Input: What do we get for `MKLMVLVFTIGLTLLLGVQAMPANRLSCYRKILKDHNCHNLPEGVADLTQIDVNVQDHFWDGKGCEMICYCNFSELLCCPKDVFFGPKISFVIPCNNQ` ?
Output: 25.5

Input: What do we get for `MGRRDAQLLAALLVLGLCALAGSEKPSPCQCSRLSPHNRTNCGFPGITSDQCFDNGCCFDSSVTGVPWCFHPLPKQESDQCVMEVSDRRNCGYPGISPEECASRKCCFSNFIFEVPWCFFPKSVEDCHY` ?
Output: 24.8
